# credit: ChEMBL document CHEMBL5532655

System: MOLM-13
Assay: cells
Conditions: Homo sapiens, MOLM-13, 48 h
Description: Antiproliferative activity against human MOLM-13 cells assessed as inhibition of cell growth incubated for 48 hrs by MTT assay
measurement kind: IC50 (µM)

COc1cc2c(cc1-c1ccc(F)cc1)ncc1nc(C)n([C@@H](C)c3ccccc3)c12 2.49
COc1cc2c(cc1-c1cnn(C)c1)ncc1nc(C)n([C@H](C)c3ccccn3)c12 3.55
COc1cc2c(cc1-c1c(C)n[nH]c1C)ncc1nc(C)n([C@H](C)c3ccccn3)c12 0.44
Cc1sc2c(c1C)C(c1ccc(Cl)cc1)=N[C@@H](CC(=O)OC(C)(C)C)c1nnc(C)n1-2 1.73
COc1cc2c(cc1-c1ccc(O)cc1)ncc1nc(C)n([C@@H](C)c3ccccc3)c12 8.42
COc1cc2c(cc1-c1c(C)noc1C)ncc1nc(C)n(-c3ccc(C#N)cc3)c12 12.8
COc1cc2c(cc1-c1ccc3[nH]ccc3c1)ncc1nc(C)n([C@@H](C)c3ccccc3)c12 9.7
